tested on: NCI-H1651; test: relative viability (nuclei count vs DMSO), 5 days (fraction); higher = more cells survive; settings: first compound 0.08 µM
READOUT_LABEL: relative viability
// response body must contain only the number

Exercise: Item O=c1cc(-c2cccc3c2Sc2ccccc2S3)oc(N2CCOCC2)c1 + CS(=O)(=O)N1CCN(Cc2cc3nc(-c4cccc5[nH]ncc45)nc(N4CCOCC4)c3s2)CC1 [Pictilisib] (partner 1 µM) : provide relative viability
Solution: 0.512

Exercise: For the molecule COc1nc(C)cnc1NS(=O)(=O)c1cccnc1-c1ccc(-c2nnco2)cc1 [Zibotentan] + C[C@@H](Oc1cc(-c2cnn(C3CCNCC3)c2)cnc1N)c1c(Cl)ccc(F)c1Cl [Crizotinib] (partner 1 µM) , give its reported relative viability.
Solution: 0.962

====

test system: COR-L23; experiment: relative viability (nuclei count vs DMSO), 5 days (fraction); higher = more cells survive; details: first compound 0.03162 µM
READOUT_LABEL: relative viability
In your answer, state the number alone without any accompanying words.

Worked cases, relative viability given:
CCN(CC)CCCCNc1ncc2cc(-c3cc(OC)cc(OC)c3)c(NC(=O)NC(C)(C)C)nc2n1 + CCNC(=O)c1noc(-c2cc(C(C)C)c(O)cc2O)c1-c1ccc(CN2CCOCC2)cc1 [Luminespib] (partner 0.01 µM): 0.707
CCN(CC)CCCCNc1ncc2cc(-c3cc(OC)cc(OC)c3)c(NC(=O)NC(C)(C)C)nc2n1 + O=C(c1cc(Cc2n[nH]c(=O)c3ccccc23)ccc1F)N1CCN(C(=O)C2CC2)CC1 [Olaparib] (partner 8 µM): 0.378
CCN(CC)CCCCNc1ncc2cc(-c3cc(OC)cc(OC)c3)c(NC(=O)NC(C)(C)C)nc2n1 + Cc1nc(NC(=O)N2CCC[C@H]2C(N)=O)sc1-c1ccnc(C(C)(C)C(F)(F)F)c1 [Alpelisib] (partner 2 µM): 1.02

Then there is this compound:
Exercise: Specify measured relative viability for CCN(CC)CCCCNc1ncc2cc(-c3cc(OC)cc(OC)c3)c(NC(=O)NC(C)(C)C)nc2n1 + O=C(CCCCCCC(=O)Nc1ccccc1)NO [Vorinostat] (partner 1 µM) .
Solution: 0.495

====

Attribute: relative viability
tested on: LU99A; experiment: relative viability (nuclei count vs DMSO), 5 days (fraction); higher = more cells survive; conditions: first compound 2.53 µM
Reply: number alone, nothing else.

Some solved entries appear below for comparison.
COc1nc(C)cnc1NS(=O)(=O)c1cccnc1-c1ccc(-c2nnco2)cc1 [Zibotentan] + C[C@@H](Oc1cc(-c2cnn(C3CCNCC3)c2)cnc1N)c1c(Cl)ccc(F)c1Cl [Crizotinib] (partner 1 µM): 0.617
O=c1cc(-c2cccc3c2Sc2ccccc2S3)oc(N2CCOCC2)c1 + N=C(N)NC(=N)NCCc1ccccc1 [Phenformin] (partner 250 µM): 0.896
O=c1cc(-c2cccc3c2Sc2ccccc2S3)oc(N2CCOCC2)c1 + COc1cc2c(Oc3ccc(NC(=O)C4(C(=O)Nc5ccc(F)cc5)CC4)cc3F)ccnc2cc1OCCCN1CCOCC1 [Foretinib] (partner 0.25 µM): 0.829
O=c1cc(-c2cccc3c2Sc2ccccc2S3)oc(N2CCOCC2)c1 + CCNC(=O)c1noc(-c2cc(C(C)C)c(O)cc2O)c1-c1ccc(CN2CCOCC2)cc1 [Luminespib] (partner 0.01 µM): 0.221
COc1nc(C)cnc1NS(=O)(=O)c1cccnc1-c1ccc(-c2nnco2)cc1 [Zibotentan] + Cc1cc(Nc2cc(N3CCN(C)CC3)nc(Sc3ccc(NC(=O)C4CC4)cc3)n2)n[nH]1 [Tozasertib] (partner 0.1 µM): 0.301

Exercise: Answer with reported relative viability of COc1nc(C)cnc1NS(=O)(=O)c1cccnc1-c1ccc(-c2nnco2)cc1 [Zibotentan] + C[C@]1(O)C[C@@H](c2nc(-c3ccc4ccc(-c5ccccc5)nc4c3)c3c(N)nccn32)C1 [Linsitinib] (partner 1 µM)
Solution: 0.602

Exercise: Identify measured relative viability corresponding to COc1nc(C)cnc1NS(=O)(=O)c1cccnc1-c1ccc(-c2nnco2)cc1 [Zibotentan] + COc1cc2c(Oc3ccc(NC(=O)C4(C(=O)Nc5ccc(F)cc5)CC4)cc3F)ccnc2cc1OCCCN1CCOCC1 [Foretinib] (partner 0.25 µM)
Solution: 0.918

// provenance: the supplement of paper PMC10307832
